- METHOD: Water solubility (Test Example 1)
- Format: physicochemical
- CONDITION SET: aqueous buffer, thermodynamic from solid; PH = 5
PROPERTY: solubility (µg/mL)

1. C[C@@H](OC[C@@]1(c2ccccc2)CC[C@]2(CCC(=O)N2C(=O)CCC(=O)O)CN1)c1cc(C(F)(F)F)cc(C(F)(F)F)c1 [Example 8]
2. C[C@@H](OC[C@@]1(c2ccccc2)CC[C@]2(CCC(=O)N2)CN1C(=O)OCCCOP(=O)(O)O)c1cc(C(F)(F)F)cc(C(F)(F)F)c1 [Example 2]
Field: entry with larger solubility (options 1 / 2 ). # reply format: chosen label
2

====

- METHOD: Plasma stability test (Test Example 3)
- Format: in vitro ADME
- CONDITION SET: human plasma, 37° C., 30 min
PROPERTY: plasma concentration of the compound of the examples (nM)

# SMILES STR, OBSERVED VALUE
records = [
    ("C[C@@H](OC[C@@]1(c2ccccc2)CC[C@]2(CCC(=O)N2C(=O)OCC(=O)O)CN1)c1cc(C(F)(F)F)cc(C(F)(F)F)c1", 910),
    ("CC(C)[C@H](N)C(=O)OCCOC(=O)N1C[C@@]2(CCC(=O)N2)CC[C@@]1(CO[C@H](C)c1cc(C(F)(F)F)cc(C(F)(F)F)c1)c1ccccc1.O=C(O)C(F)(F)F", 910),
    ("C[C@@H](OC[C@@]1(c2ccccc2)CC[C@]2(CCC(=O)N2)CN1C(=O)OCCN1CCN(C)CC1)c1cc(C(F)(F)F)cc(C(F)(F)F)c1", 990),
    ("CC(C)[C@H](N)C(=O)OCCCOC(=O)N1C[C@@]2(CCC(=O)N2)CC[C@@]1(CO[C@H](C)c1cc(C(F)(F)F)cc(C(F)(F)F)c1)c1ccccc1.O=C(O)C(F)(F)F", 970),
]

====

- METHOD: Plasma stability test (Test Example 3)
- Assay type: in vitro ADME
- CONDITION SET: human plasma, 37° C., 15 min
PROPERTY: plasma concentration of the compound of the examples (nM)

# COMPOUND, OBSERVED VALUE
data = [
    ("C[C@@H](OC[C@@]1(c2ccccc2)CC[C@]2(CCC(=O)N2)CN1C(=O)OCCN1CCN(C)CC1)c1cc(C(F)(F)F)cc(C(F)(F)F)c1 [Example 4]", 980),
    ("CC(C)[C@H](N)C(=O)OCCCOC(=O)N1C[C@@]2(CCC(=O)N2)CC[C@@]1(CO[C@H](C)c1cc(C(F)(F)F)cc(C(F)(F)F)c1)c1ccccc1.O=C(O)C(F)(F)F [Example 10]", 920),
    ("C[C@@H](OC[C@@]1(c2ccccc2)CC[C@]2(CCC(=O)N2C(=O)OCC(=O)O)CN1)c1cc(C(F)(F)F)cc(C(F)(F)F)c1 [Example 6]", 850),
    ("CC(C)[C@H](N)C(=O)OCCOC(=O)N1C[C@@]2(CCC(=O)N2)CC[C@@]1(CO[C@H](C)c1cc(C(F)(F)F)cc(C(F)(F)F)c1)c1ccccc1.O=C(O)C(F)(F)F [Example 11]", 990),
]

====

- METHOD: Plasma stability test (Test Example 3)
- Format: in vitro ADME
- CONDITION SET: human plasma, 37° C., 120 min
PROPERTY: plasma concentration of the compound of the examples (nM)

# SMILES STR, MEASUREMENT UNITS, OBSERVED VALUE
data = [
    ("CC(C)[C@H](N)C(=O)OCCOC(=O)N1C[C@@]2(CCC(=O)N2)CC[C@@]1(CO[C@H](C)c1cc(C(F)(F)F)cc(C(F)(F)F)c1)c1ccccc1.O=C(O)C(F)(F)F", "nM", 970),
    ("C[C@@H](OC[C@@]1(c2ccccc2)CC[C@]2(CCC(=O)N2)CN1C(=O)OCCN1CCN(C)CC1)c1cc(C(F)(F)F)cc(C(F)(F)F)c1", "nM", 810),
    ("C[C@@H](OC[C@@]1(c2ccccc2)CC[C@]2(CCC(=O)N2C(=O)OCC(=O)O)CN1)c1cc(C(F)(F)F)cc(C(F)(F)F)c1", "nM", 700),
    ("CC(C)[C@H](N)C(=O)OCCCOC(=O)N1C[C@@]2(CCC(=O)N2)CC[C@@]1(CO[C@H](C)c1cc(C(F)(F)F)cc(C(F)(F)F)c1)c1ccccc1.O=C(O)C(F)(F)F", "nM", 950),
]

====

- METHOD: In vivo pharmacokinetic test in rats (Test Example 5)
- CONDITION SET: plasma; rat, intravenous bolus 2 mg/kg; read-out: AUC0-t of the compound of the example
PROPERTY: AUC(0-t) (ng·h/mL)
Only the number, expressed in ng·h/mL, is required.

Consider the compound shown here: C[C@@H](OC[C@@]1(c2ccccc2)CC[C@]2(CCC(=O)N2)CN1C(=O)OCCCOP(=O)(O)O)c1cc(C(F)(F)F)cc(C(F)(F)F)c1 [Example 2] What is its recorded AUC(0-t)?
41.6

====

- METHOD: In vivo pharmacokinetic test in rats (Test Example 5)
- CONDITION SET: plasma; rat, intravenous bolus 2 mg/kg; read-out: T1/2 of the compound of the example (converted)
PROPERTY: half-life (min)
Write it as a number; the unit min goes unstated.

// returns reported half-life for input C[C@@H](OC[C@@]1(c2ccccc2)CC[C@]2(CCC(=O)N2)CN1C(=O)OCCCOP(=O)(O)O)c1cc(C(F)(F)F)cc(C(F)(F)F)c1
5.22

====

- METHOD: Plasma stability test (Test Example 3)
- Assay type: in vitro ADME
- CONDITION SET: human plasma, 37° C., 180 min
PROPERTY: plasma concentration of the compound of the examples (nM)

Solved cases (2 shown):
# SMILES STR, MEASUREMENT UNITS, OBSERVED VALUE
measured = [
    ("C[C@@H](OC[C@@]1(c2ccccc2)CC[C@]2(CCC(=O)N2)CN1C(=O)OCCN1CCN(C)CC1)c1cc(C(F)(F)F)cc(C(F)(F)F)c1", "nM", 780),
    ("CC(C)[C@H](N)C(=O)OCCOC(=O)N1C[C@@]2(CCC(=O)N2)CC[C@@]1(CO[C@H](C)c1cc(C(F)(F)F)cc(C(F)(F)F)c1)c1ccccc1.O=C(O)C(F)(F)F", "nM", 950),
]

a. C[C@@H](OC[C@@]1(c2ccccc2)CC[C@]2(CCC(=O)N2C(=O)OCC(=O)O)CN1)c1cc(C(F)(F)F)cc(C(F)(F)F)c1
b. CC(C)[C@H](N)C(=O)OCCCOC(=O)N1C[C@@]2(CCC(=O)N2)CC[C@@]1(CO[C@H](C)c1cc(C(F)(F)F)cc(C(F)(F)F)c1)c1ccccc1.O=C(O)C(F)(F)F
Hi there, can you help? I need to know whether a or b has lower measured plasma concentration of the compound of the examples. Kindly state the label of the option you pick.
a
(a: 530 nM, b: 880 nM)

====

- METHOD: Plasma stability test (Test Example 3)
- Type: in vitro ADME
- CONDITION SET: human plasma, 37° C., 90 min
PROPERTY: plasma concentration of the compound of the examples (nM)

# COMPOUND, MEASUREMENT UNITS, OBSERVED VALUE
rows = [
    ("CC(C)[C@H](N)C(=O)OCCOC(=O)N1C[C@@]2(CCC(=O)N2)CC[C@@]1(CO[C@H](C)c1cc(C(F)(F)F)cc(C(F)(F)F)c1)c1ccccc1.O=C(O)C(F)(F)F [Example 11]", "nM", 1030),
    ("C[C@@H](OC[C@@]1(c2ccccc2)CC[C@]2(CCC(=O)N2)CN1C(=O)OCCN1CCN(C)CC1)c1cc(C(F)(F)F)cc(C(F)(F)F)c1 [Example 4]", "nM", 970),
    ("C[C@@H](OC[C@@]1(c2ccccc2)CC[C@]2(CCC(=O)N2C(=O)OCC(=O)O)CN1)c1cc(C(F)(F)F)cc(C(F)(F)F)c1 [Example 6]", "nM", 770),
    ("CC(C)[C@H](N)C(=O)OCCCOC(=O)N1C[C@@]2(CCC(=O)N2)CC[C@@]1(CO[C@H](C)c1cc(C(F)(F)F)cc(C(F)(F)F)c1)c1ccccc1.O=C(O)C(F)(F)F [Example 10]", "nM", 930),
]

====

- METHOD: Pharmacokinetic test in cynomolgus monkeys, Example 5 (Test Example 6)
- Assay type: in vivo
- CONDITION SET: plasma; cynomolgus monkey, iv 2 mg/kg Example 5; analyte Example 5; read-out: AUC0-t
PROPERTY: AUC(0-t) (ng·h/mL)
Unit ng·h/mL implied. Number only.

Endpoint output: AUC(0-t) of CC(C)[C@H](N)C(=O)OCOC(=O)N1C[C@@]2(CCC(=O)N2)CC[C@@]1(CO[C@H](C)c1cc(C(F)(F)F)cc(C(F)(F)F)c1)c1ccccc1 [Example 5] . Value?
0.77
